# system_name: T1, FZD3 cysteine-rich domain (CRD), MYC-tagged and GPI-anchored on CHO cells (human, UniProt Q9NPG1 24-150, GPI anchor)
# T1 construct: domain: cysteine-rich domain (CRD); also called FZD3 CRD; CHO-myc-FZDGPI; not shown: MYC tag and GPI anchor signal
# T1 sequence (looked up): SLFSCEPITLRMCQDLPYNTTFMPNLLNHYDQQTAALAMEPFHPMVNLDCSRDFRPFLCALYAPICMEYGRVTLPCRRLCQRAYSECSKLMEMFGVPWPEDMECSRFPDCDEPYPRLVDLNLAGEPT
# experiment_description: immunofluorescence, CHO-CRD cells
parameter_measured: binding result

- Fab-2930 (Fab, V domains shown, Fab; also called Fv-2930) VH: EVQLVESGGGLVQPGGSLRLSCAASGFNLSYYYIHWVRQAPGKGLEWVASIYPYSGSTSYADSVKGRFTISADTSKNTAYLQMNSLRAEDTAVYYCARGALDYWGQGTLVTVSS VL: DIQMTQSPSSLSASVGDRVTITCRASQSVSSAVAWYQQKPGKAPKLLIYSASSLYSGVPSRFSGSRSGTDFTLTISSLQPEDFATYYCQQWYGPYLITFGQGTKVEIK: no binding
- Fab-2920 (Fab, V domains shown, Fab) VH: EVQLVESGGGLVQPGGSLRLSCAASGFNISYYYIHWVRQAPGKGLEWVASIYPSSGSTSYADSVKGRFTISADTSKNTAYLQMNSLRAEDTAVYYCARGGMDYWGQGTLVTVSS VL: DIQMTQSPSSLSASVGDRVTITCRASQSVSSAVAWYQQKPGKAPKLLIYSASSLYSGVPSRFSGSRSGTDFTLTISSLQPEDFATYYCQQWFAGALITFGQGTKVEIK: no binding
- Fab-2914 (Fab, V domains shown, Fab; also called Fv-2914) VH: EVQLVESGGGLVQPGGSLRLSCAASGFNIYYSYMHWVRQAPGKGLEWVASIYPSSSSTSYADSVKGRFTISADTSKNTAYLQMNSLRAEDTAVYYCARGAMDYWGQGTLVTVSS VL: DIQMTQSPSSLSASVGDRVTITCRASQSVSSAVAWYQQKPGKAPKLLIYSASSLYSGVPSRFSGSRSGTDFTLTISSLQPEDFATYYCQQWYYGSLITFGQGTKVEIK: no binding
